target: hFASN enzyme (full length) (Homo sapiens); construct: 10 μL hFASN enzyme (full length, 300 ng, purified in house); made in house; assay: Fatty Acid Synthase (FASN) Inhibition Scintillation Proximity Assay; type: biochemical; conditions: read-out: FASN % Effect @1E−05M
Sequence (P49327 whole entry): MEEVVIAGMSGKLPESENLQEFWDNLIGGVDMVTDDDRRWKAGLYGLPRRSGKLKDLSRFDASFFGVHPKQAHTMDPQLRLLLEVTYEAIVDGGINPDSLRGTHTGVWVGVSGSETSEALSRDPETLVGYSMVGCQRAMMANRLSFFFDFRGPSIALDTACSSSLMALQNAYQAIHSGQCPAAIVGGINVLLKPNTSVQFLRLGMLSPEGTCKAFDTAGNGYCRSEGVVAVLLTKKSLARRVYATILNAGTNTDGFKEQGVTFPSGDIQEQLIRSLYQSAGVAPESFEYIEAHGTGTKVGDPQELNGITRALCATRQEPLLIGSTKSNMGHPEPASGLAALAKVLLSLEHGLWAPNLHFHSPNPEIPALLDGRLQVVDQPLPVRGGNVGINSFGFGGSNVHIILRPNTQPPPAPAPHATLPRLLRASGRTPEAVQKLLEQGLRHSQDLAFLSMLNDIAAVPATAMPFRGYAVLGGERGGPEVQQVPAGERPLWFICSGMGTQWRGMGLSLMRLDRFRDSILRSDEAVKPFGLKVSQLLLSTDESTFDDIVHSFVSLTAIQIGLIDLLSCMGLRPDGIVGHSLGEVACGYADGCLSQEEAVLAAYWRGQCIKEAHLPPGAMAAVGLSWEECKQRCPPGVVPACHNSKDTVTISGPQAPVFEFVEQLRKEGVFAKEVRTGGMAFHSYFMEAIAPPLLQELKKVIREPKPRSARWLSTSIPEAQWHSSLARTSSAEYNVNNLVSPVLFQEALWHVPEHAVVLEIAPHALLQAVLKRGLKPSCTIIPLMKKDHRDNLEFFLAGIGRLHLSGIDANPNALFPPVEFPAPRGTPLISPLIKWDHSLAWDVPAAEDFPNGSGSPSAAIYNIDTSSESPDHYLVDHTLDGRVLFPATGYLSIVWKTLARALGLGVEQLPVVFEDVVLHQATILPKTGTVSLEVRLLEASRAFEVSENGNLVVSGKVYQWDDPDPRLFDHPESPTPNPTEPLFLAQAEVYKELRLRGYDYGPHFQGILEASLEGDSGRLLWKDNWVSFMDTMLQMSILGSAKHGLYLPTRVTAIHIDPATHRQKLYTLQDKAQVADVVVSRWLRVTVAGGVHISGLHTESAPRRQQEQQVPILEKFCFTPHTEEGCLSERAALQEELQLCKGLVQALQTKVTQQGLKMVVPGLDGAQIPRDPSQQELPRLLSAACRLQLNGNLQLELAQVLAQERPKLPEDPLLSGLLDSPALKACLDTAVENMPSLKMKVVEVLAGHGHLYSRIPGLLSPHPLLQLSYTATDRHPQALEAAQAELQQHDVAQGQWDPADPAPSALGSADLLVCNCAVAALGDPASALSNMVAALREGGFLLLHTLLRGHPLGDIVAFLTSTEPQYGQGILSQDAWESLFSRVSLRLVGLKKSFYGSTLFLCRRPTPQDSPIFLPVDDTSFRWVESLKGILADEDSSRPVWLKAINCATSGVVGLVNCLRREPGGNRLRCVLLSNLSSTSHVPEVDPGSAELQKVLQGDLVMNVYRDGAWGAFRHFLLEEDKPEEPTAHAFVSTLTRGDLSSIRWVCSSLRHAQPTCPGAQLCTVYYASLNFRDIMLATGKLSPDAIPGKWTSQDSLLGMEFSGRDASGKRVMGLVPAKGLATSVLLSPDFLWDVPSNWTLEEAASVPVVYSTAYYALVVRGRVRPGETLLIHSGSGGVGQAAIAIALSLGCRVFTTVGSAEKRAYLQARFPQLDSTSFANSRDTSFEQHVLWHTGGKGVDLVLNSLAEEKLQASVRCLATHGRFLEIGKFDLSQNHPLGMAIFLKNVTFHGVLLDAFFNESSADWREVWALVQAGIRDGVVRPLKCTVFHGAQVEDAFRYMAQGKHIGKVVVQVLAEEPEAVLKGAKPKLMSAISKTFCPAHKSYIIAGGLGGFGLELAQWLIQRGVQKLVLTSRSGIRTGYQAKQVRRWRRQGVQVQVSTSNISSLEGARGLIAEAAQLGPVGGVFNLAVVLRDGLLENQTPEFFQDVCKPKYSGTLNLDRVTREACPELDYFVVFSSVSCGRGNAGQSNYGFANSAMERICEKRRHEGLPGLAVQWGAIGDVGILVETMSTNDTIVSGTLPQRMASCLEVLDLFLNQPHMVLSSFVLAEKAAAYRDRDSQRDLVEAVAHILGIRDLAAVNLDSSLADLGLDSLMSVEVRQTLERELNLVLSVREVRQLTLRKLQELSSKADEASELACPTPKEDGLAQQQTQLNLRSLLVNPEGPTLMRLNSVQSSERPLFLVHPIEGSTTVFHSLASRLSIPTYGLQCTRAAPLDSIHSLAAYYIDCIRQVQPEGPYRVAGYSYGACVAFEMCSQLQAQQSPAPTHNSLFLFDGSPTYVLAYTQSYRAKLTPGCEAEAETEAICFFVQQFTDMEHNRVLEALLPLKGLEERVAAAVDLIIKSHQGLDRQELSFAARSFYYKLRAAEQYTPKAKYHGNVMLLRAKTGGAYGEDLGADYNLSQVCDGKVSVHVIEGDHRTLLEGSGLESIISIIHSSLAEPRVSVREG
ATTRIBUTE MEASURED: inhibition at 10 µM (%)
Output spec: scalar in %, unitless text.

These solved cases illustrate the format of a correct answer.
| COMPOUND | DATA VALUE |
| --- | --- |
| Cc1ccc(C(=O)N2CC(c3ccc(-c4ccnn4C)cc3)C2)cc1NC(=O)c1ccc(N(C)C(C)C)nc1 | 103 |
| Cc1ccc(C(=O)N2CCC(c3ccc(-c4cnn(C)c4)cc3)CC2)cc1NC(=O)C1CCCO1 (stereo not shown) | 101 |
| Cc1ccc(C(=O)N2CC(c3ccc(-c4ccc5c(cnn5C)c4)cc3)C2)cc1NC(=O)c1ccc(NC(C)C)nc1 | 106 |

Prompt: For the compound Cc1ccc(C(=O)N2CC(c3ccc(-c4cnn(C)c4)cc3)C2)cc1NC(=O)c1ccccc1F , what inhibition at 10 µM is on record?
Completion: 98

Prompt: For the compound Cc1ccc(C(=O)N2CCC(c3ccc(-c4cnn(C)c4C)cc3)CC2)cc1NC(=O)c1ccc(NC(C)C)nc1 , what inhibition at 10 µM is on record?
Completion: 110

Prompt: For the compound CCCCCCN1CC(C(=O)Nc2cc(C(=O)N3CCC(c4ccc(-c5cnn(C)c5)cc4)CC3)ccc2C)C1 , what inhibition at 10 µM is on record?
Completion: 105

Prompt: For the compound CCN1CCC(C(=O)Nc2cc(C(=O)N3CCC(c4ccc(-c5cnn(C)c5)cc4)CC3)ccc2C)CC1 , what inhibition at 10 µM is on record?
Completion: 113
